measurement.description: Metabolic stability in rat liver microsomes assessed as half-life preincubated for 10 mins followed by NADPH addition and measured upto 60 mins by LC-MS/MS analysis
Type: ADME, Microsome
experimental.context: time < 70 min

compound | half-life [min]
CN1CCN(Cc2ccc(Nc3ncc(Cl)c(Nc4ccccc4S(=O)(=O)N(C)C)n3)cc2)CC1 [DUBERMATINIB] | 4.3
CC(C)n1cnc(-c2ccccc2Nc2nc(Nc3ccc(N(C)C4CCN(C)CC4)cc3)ncc2Cl)n1 | 28.3
CC(=O)N1CCc2ccc(Nc3ncc(Cl)c(Nc4ccccc4S(=O)(=O)N(C)C)n3)cc2C1 | 2.3
CN1CCC(Oc2ccc(Nc3ncc(Cl)c(Nc4ccccc4-c4nnn(C)n4)n3)cc2)CC1 | 6.4

###

Quick reference for half-life among some molecules
measurement.description: Metabolic stability in human liver microsomes assessed as half-life preincubated for 10 mins followed by NADPH addition and measured upto 60 mins by LC-MS/MS analysis
Assay type: ADME, Microsome
experimental.context: time < 70 min

molecule | half-life, min
CN1CC2CN(C(=O)c3ccc(Nc4ncc(Cl)c(Nc5ccccc5S(=O)(=O)N(C)C)n4)cc3)CC2C1 (stereo not drawn) | 4.4
CC(=O)N1CCc2ccc(Nc3ncc(Cl)c(Nc4ccccc4S(=O)(=O)N(C)C)n3)cc2C1 | 1.82
CN1CCC(N(C)c2ccc(Nc3ncc(Cl)c(Nc4ccccc4-c4ncn(C)n4)n3)cc2)CC1 | 74.2
CC(C)n1cnc(-c2ccccc2Nc2nc(Nc3ccc(N(C)C4CCN(C)CC4)cc3)ncc2Cl)n1 | 60.6
CC(=O)N1CCN(c2ccc(Nc3ncc(Cl)c(Nc4ccccc4-c4ncn(C(C)C)n4)n3)cc2)CC1 | 156
CN1CCc2ccc(Nc3ncc(Cl)c(Nc4ccccc4S(=O)(=O)N(C)C)n3)cc2C1 | 2.4
CN1CCN(Cc2ccc(Nc3ncc(Cl)c(Nc4ccccc4S(=O)(=O)N(C)C)n3)cc2)CC1 | 2.7
CN1CCC(Oc2ccc(Nc3ncc(Cl)c(Nc4ccccc4-c4nnn(C)n4)n3)cc2)CC1 | 36.2

###

Quick reference for half-life among some compounds
measurement.description: Metabolic stability in rat liver microsomes assessed as half-life preincubated for 10 mins followed by NADPH addition and measured upto 60 mins by LC-MS/MS analysis
Assay type: ADME, Microsome
experimental.context: time < 70 min

compound | unit.abbreviation | half-life
CN1CCc2ccc(Nc3ncc(Cl)c(Nc4ccccc4S(=O)(=O)N(C)C)n3)cc2C1 | min | 2.4
CC(=O)N1CCN(c2ccc(Nc3ncc(Cl)c(Nc4ccccc4-c4ncn(C(C)C)n4)n3)cc2)CC1 | min | 153
CN1CCC(N(C)c2ccc(Nc3ncc(Cl)c(Nc4ccccc4-c4ncn(C)n4)n3)cc2)CC1 | min | 15.4
CN1CC2CN(C(=O)c3ccc(Nc4ncc(Cl)c(Nc5ccccc5S(=O)(=O)N(C)C)n4)cc3)CC2C1 (centres undefined) | min | 7.3

###

measurement.description: Intrinsic clearance in rat
Format: ADME

molecule | CLint scaled / mL/min/kg
CN1CC2CN(C(=O)c3ccc(Nc4ncc(Cl)c(Nc5ccccc5S(=O)(=O)N(C)C)n4)cc3)CC2C1 (stereo not drawn) | 47.5
CC(=O)N1CCN(c2ccc(Nc3ncc(Cl)c(Nc4ccccc4-c4ncn(C(C)C)n4)n3)cc2)CC1 | 12.5
CN1CCC(Oc2ccc(Nc3ncc(Cl)c(Nc4ccccc4-c4nnn(C)n4)n3)cc2)CC1 | 48.3
CC(C)n1cnc(-c2ccccc2Nc2nc(Nc3ccc(N(C)C4CCN(C)CC4)cc3)ncc2Cl)n1 | 33.9
CN1CCC(N(C)c2ccc(Nc3ncc(Cl)c(Nc4ccccc4-c4ncn(C)n4)n3)cc2)CC1 | 41.2
CN1CCN(Cc2ccc(Nc3ncc(Cl)c(Nc4ccccc4S(=O)(=O)N(C)C)n3)cc2)CC1 | 50.4
CN1CCc2ccc(Nc3ncc(Cl)c(Nc4ccccc4S(=O)(=O)N(C)C)n3)cc2C1 | 52.4
CC(=O)N1CCc2ccc(Nc3ncc(Cl)c(Nc4ccccc4S(=O)(=O)N(C)C)n3)cc2C1 | 52.5

###

measurement.description: Intrinsic clearance in human
Format: ADME
quantity.measured: CLint scaled (mL/min/kg)

molecule | unit.abbreviation | reported.value
CN1CCC(Oc2ccc(Nc3ncc(Cl)c(Nc4ccccc4-c4nnn(C)n4)n3)cc2)CC1 | mL/min/kg | 14.5
CN1CCN(Cc2ccc(Nc3ncc(Cl)c(Nc4ccccc4S(=O)(=O)N(C)C)n3)cc2)CC1 | mL/min/kg | 20.1
CC(=O)N1CCN(c2ccc(Nc3ncc(Cl)c(Nc4ccccc4-c4ncn(C(C)C)n4)n3)cc2)CC1 | mL/min/kg | 7.2
CN1CCc2ccc(Nc3ncc(Cl)c(Nc4ccccc4S(=O)(=O)N(C)C)n3)cc2C1 | mL/min/kg | 20.1
CC(C)n1cnc(-c2ccccc2Nc2nc(Nc3ccc(N(C)C4CCN(C)CC4)cc3)ncc2Cl)n1 | mL/min/kg | 12
CN1CCC(N(C)c2ccc(Nc3ncc(Cl)c(Nc4ccccc4-c4ncn(C)n4)n3)cc2)CC1 | mL/min/kg | 11
CC(=O)N1CCc2ccc(Nc3ncc(Cl)c(Nc4ccccc4S(=O)(=O)N(C)C)n3)cc2C1 | mL/min/kg | 20.3
CN1CC2CN(C(=O)c3ccc(Nc4ncc(Cl)c(Nc5ccccc5S(=O)(=O)N(C)C)n4)cc3)CC2C1 (stereo not drawn) | mL/min/kg | 19.6

###

target.desc: Tyrosine-protein kinase receptor UFO (Homo sapiens, UniProt P30530)
Sequence (P30530 whole entry): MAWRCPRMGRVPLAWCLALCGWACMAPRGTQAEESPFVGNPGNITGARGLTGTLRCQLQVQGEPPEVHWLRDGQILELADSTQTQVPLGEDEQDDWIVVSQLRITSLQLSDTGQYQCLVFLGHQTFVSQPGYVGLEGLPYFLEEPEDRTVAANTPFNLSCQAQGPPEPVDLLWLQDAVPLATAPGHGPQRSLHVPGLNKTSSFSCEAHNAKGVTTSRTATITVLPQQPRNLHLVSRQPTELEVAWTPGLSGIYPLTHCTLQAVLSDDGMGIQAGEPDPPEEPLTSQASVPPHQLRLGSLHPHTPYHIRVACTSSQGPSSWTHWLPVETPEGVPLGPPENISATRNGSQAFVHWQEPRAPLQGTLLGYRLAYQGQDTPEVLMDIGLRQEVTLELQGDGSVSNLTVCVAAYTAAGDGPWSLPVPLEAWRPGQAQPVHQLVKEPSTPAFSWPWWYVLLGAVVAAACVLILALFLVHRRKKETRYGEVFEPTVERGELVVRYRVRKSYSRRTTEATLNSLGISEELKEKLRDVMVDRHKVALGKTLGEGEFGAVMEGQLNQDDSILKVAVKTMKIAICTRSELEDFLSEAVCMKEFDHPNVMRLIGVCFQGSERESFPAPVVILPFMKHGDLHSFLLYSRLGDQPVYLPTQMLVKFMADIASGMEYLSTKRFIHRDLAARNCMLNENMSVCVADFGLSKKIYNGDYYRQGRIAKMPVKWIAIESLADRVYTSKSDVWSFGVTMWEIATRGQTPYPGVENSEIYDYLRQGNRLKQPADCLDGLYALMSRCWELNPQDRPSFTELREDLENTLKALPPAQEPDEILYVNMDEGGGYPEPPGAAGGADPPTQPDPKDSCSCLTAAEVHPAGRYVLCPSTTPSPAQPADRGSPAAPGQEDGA

chem.smiles | IC50
CC(C)n1cnc(-c2ccccc2Nc2nc(Nc3ccc(N(C)C4CCN(C)CC4)cc3)ncc2Cl)n1 | 5 nM
Cc1nc(-c2ccccc2Nc2nc(Nc3ccc(CN4CCN(C)CC4)cc3)ncc2Cl)n[nH]1 | 11 nM

###

Quick reference for Cmax among some molecules
measurement.description: Cmax in Sprague-Dawley rat at 5 mg/kg, po measured upto 24 hrs by LC-MS/MS analysis
Assay type: ADME, organism-based
Set-up: dose 5 mg/kg, time < 24 hrs, route po
experimental.context: in vivo

molecule | Cmax / ng/mL
CC(C)n1cnc(-c2ccccc2Nc2nc(Nc3ccc(N(C)C4CCN(C)CC4)cc3)ncc2Cl)n1 | 83.9
CN1CCN(Cc2ccc(Nc3ncc(Cl)c(Nc4ccccc4S(=O)(=O)N(C)C)n3)cc2)CC1 [DUBERMATINIB] | 46.8
CC(=O)N1CCN(c2ccc(Nc3ncc(Cl)c(Nc4ccccc4-c4ncn(C(C)C)n4)n3)cc2)CC1 | 169

###

Quick reference for Cmax among some molecules
measurement.description: Cmax in Sprague-Dawley rat at 1 mg/kg, iv measured upto 24 hrs by LC-MS/MS analysis
Assay type: ADME, organism-based
Design: time < 24 hrs, dose 1 mg/kg, route iv
experimental.context: in vivo

molecule | Cmax [ng/mL]
CC(=O)N1CCN(c2ccc(Nc3ncc(Cl)c(Nc4ccccc4-c4ncn(C(C)C)n4)n3)cc2)CC1 | 337
CN1CCN(Cc2ccc(Nc3ncc(Cl)c(Nc4ccccc4S(=O)(=O)N(C)C)n3)cc2)CC1 [DUBERMATINIB] | 89.8
CC(C)n1cnc(-c2ccccc2Nc2nc(Nc3ccc(N(C)C4CCN(C)CC4)cc3)ncc2Cl)n1 | 56.3

###

Quick reference for clearance among some compounds
measurement.description: Clearance in Sprague-Dawley rat at 1 mg/kg, iv measured upto 24 hrs by LC-MS/MS analysis
Format: ADME, organism-based
experimental.context: in vivo

chem.smiles | clearance
CC(C)n1cnc(-c2ccccc2Nc2nc(Nc3ccc(N(C)C4CCN(C)CC4)cc3)ncc2Cl)n1 | 36.7 mL/min/kg
CN1CCN(Cc2ccc(Nc3ncc(Cl)c(Nc4ccccc4S(=O)(=O)N(C)C)n3)cc2)CC1 | 82.8 mL/min/kg
CC(=O)N1CCN(c2ccc(Nc3ncc(Cl)c(Nc4ccccc4-c4ncn(C(C)C)n4)n3)cc2)CC1 | 32.5 mL/min/kg
